These measurements were taken from ChEMBL document CHEMBL4725242.

- ASSAY_TEXT: Oral bioavailability in Beagle dog at 0.5 mg/kg administered via gavage by HPLC-MS analysis
- Assay type: ADME, organism-based, Canis lupus familiaris
- EXPERIMENTAL_CONDITIONS: in vivo
RESULT_TYPE: bioavailability

INSERT INTO measurements (structure_as_smiles, result) VALUES
  ('CCCC[C@](C)(CO)Nc1nc(N)nc2cc(F)cnc12', '0.8%');

* * *

- ASSAY_TEXT: Half life in cynomolgus monkey at 0.1 mg/kg, iv administered as 30 mins infusion by HPLC-MS analysis
- Format: ADME, organism-based, Macaca fascicularis
- EXPERIMENTAL_CONDITIONS: in vivo
RESULT_TYPE: half-life (min)

INSERT INTO measurements (compound, result_type, quantitative_readout) VALUES
  ('CCCC[C@](C)(CO)Nc1nc(N)nc2cc(F)cnc12 [SELGANTOLIMOD]', 'half-life', 40.2);
